Collected viability at 1 µM values appear next to each entry.
- Tested on: iCell cardiomyocytes (human iPSC-derived cardiomyocytes)
- test_name: High-content imaging of cytotoxicity and mitochondrial integrity in iPSC-CMs
- Type: cell-based
- particulars: Homo sapiens, Cardiomyocyte, 1.5 h, 1.00 µM; 0.00 µM = 100.00; read-out: cm.cam.90min
value_kind: viability at 1 µM (%)

compound_structure_string: Clc1cccc(-c2cccc(Cl)c2)c1
observed_result: 101

compound_structure_string: COc1ccc(-c2ccc(Cl)cc2)cc1
observed_result: 103

compound_structure_string: Oc1cc(Cl)cc(-c2cccc(Cl)c2)c1
observed_result: 99

compound_structure_string: Clc1ccc(-c2ccccc2)cc1
observed_result: 98.5

compound_structure_string: Oc1ccc(-c2cccc(Cl)c2)cc1Cl
observed_result: 99.1

---

- System: iCell endothelial cells (human iPSC-derived ECs)
- test_name: Tube formation (tubulogenesis) assay in iCell endothelial cells, 18 h
- Assay type: cell-based
- particulars: Homo sapiens, Endothelial cell, iPSC-EC tube formation, 18 hr, top concentration 100.00 µM, read-out: endo.mtl.18hr POD
- Procedure: The culture conditions of iCell®-endothelial cells were as reported elsewhere ([Iwata et al. 2017]). Briefly, T75 flasks were coated with a fibronectin solution ( 3 μg/cm^2 ) followed by incubation for 1–2 h. […] Phenotypic responses were quantitatively assessed using concentration–response modeling as detailed elsewhere ([Sirenko et al. 2017]). […] The ability of physicochemical properties to predict differences in PODs were evaluated by multiregression and mixed-effects modeling using R.
Counter-ions that a name gives are not always drawn.
Classification field: enter fulfilled for minimal effective concentration values not below 4 µM, not fulfilled for values below it.

compound: Oc1cc(Cl)c(-c2cc(Cl)ccc2Cl)cc1Cl
assigned_class: fulfilled

compound: Oc1cccc(-c2ccc(Cl)cc2)c1
assigned_class: not fulfilled

compound: O=S(=O)(O)Oc1ccc(-c2cccc(Cl)c2)cc1Cl [4-yl PCB 11 sulfate]
assigned_class: fulfilled

compound: O=S(=O)(O)Oc1ccc(-c2ccc(Cl)cc2)cc1 [4'-yl PCB 3 sulfate]
assigned_class: fulfilled

compound: O=S(=O)(O)Oc1cccc(-c2ccc(Cl)cc2)c1 [3'-yl PCB 3 sulfate]
assigned_class: not fulfilled

compound: Oc1ccc(-c2cccc(Cl)c2)cc1Cl
assigned_class: fulfilled

compound: Clc1cccc(-c2cccc(Cl)c2)c1
assigned_class: fulfilled

compound: Oc1ccccc1-c1ccc(Cl)cc1
assigned_class: fulfilled

---

- Tested on: iCell cardiomyocytes (human iPSC-derived cardiomyocytes)
- test_name: High-content imaging of cytotoxicity and mitochondrial integrity in iPSC-CMs
- Assay type: cell-based
- particulars: Homo sapiens, iPSC-CM, 24 h, iPSC-CM; read-out: cm.tc.24hrs POD
Where a name gives a salt, the structure may show the parent alone.

compound: Oc1ccc(O)c(-c2ccc(Cl)cc2)c1 [2',5'-DiOH PCB3]
units_label: µM
minimal effective concentration: 1.88

compound: O=S(=O)(O)Oc1cc(Cl)ccc1-c1ccccc1 [2-yl PCB 3 sulfate]
units_label: µM
minimal effective concentration: 100

compound: Clc1ccc(-c2ccccc2)cc1 [PCB3]
units_label: µM
minimal effective concentration: 6.97

compound: Oc1cc(Cl)cc(-c2cccc(Cl)c2)c1 [5-OH PCB 11]
units_label: µM
minimal effective concentration: 10.7

compound: Oc1ccc(-c2ccc(Cl)cc2)cc1 [4'-OH PCB3]
units_label: µM
minimal effective concentration: 38.4

compound: Oc1cccc(-c2ccc(Cl)cc2)c1 [3'-OH PCB3]
units_label: µM
minimal effective concentration: 15.6

compound: Oc1ccc(-c2cccc(Cl)c2)cc1Cl [4-OH PCB11]
units_label: µM
minimal effective concentration: 8.62

---

Collected activity at 0.01 µM values appear next to each entry.
- Test system: iCell endothelial cells (human iPSC-derived ECs)
- test_name: High-content imaging cytotoxicity in iCell endothelial cells, 24 h
- Format: cell-based
- particulars: Homo sapiens, Endothelial cell, iPSC-EC, 24 hr, 0.01 µM, 0.00 µM control = 100.00, read-out: endo.nma.24hr
Where a name gives a salt, the structure may show the parent alone.

compound: Oc1cc(Cl)c(-c2cc(Cl)ccc2Cl)cc1Cl [4-OH PCB52]
target: iCell endothelial cells (human iPSC-derived ECs)
activity at 0.01 µM [%]: 104

compound: O=S(=O)(O)Oc1cc(-c2ccccc2)ccc1Cl [3-yl PCB 3 sulfate]
target: iCell endothelial cells (human iPSC-derived ECs)
activity at 0.01 µM [%]: 104

compound: Clc1cccc(-c2cccc(Cl)c2)c1 [PCB11]
target: iCell endothelial cells (human iPSC-derived ECs)
activity at 0.01 µM [%]: 101

compound: Oc1ccc(-c2ccc(Cl)cc2)cc1 [4'-OH PCB3]
target: iCell endothelial cells (human iPSC-derived ECs)
activity at 0.01 µM [%]: 100

compound: O=S(=O)(O)Oc1cc(Cl)ccc1-c1ccccc1 [2-yl PCB 3 sulfate]
target: iCell endothelial cells (human iPSC-derived ECs)
activity at 0.01 µM [%]: 103

compound: COc1ccc(-c2cccc(Cl)c2)cc1Cl [4-OMe PCB11]
target: iCell endothelial cells (human iPSC-derived ECs)
activity at 0.01 µM [%]: 107

compound: Clc1ccc(-c2ccccc2)cc1 [PCB3]
target: iCell endothelial cells (human iPSC-derived ECs)
activity at 0.01 µM [%]: 97.7

---

- System: iCell cardiomyocytes (human iPSC-derived cardiomyocytes)
- test_name: High-content imaging of cytotoxicity and mitochondrial integrity in iPSC-CMs
- Format: cell-based
- particulars: Homo sapiens, Cardiomyocyte, 24 h, cardiomyocytes (cm), mii, 24 hrs; read-out: POD cm.mii.24hrs
Where a name gives a salt, the structure may show the parent alone.
Collected minimal effective concentration values appear next to each entry.
value_kind: minimal effective concentration (µM)

compound: Oc1ccc(O)c(-c2ccc(Cl)cc2)c1 [2',5'-diOH-PCB 3, 4-Chloro-2′,5′-dihydroxybiphenyl]
units_label: µM
observed_result: 2.28
--
compound: COc1ccc(-c2ccc(Cl)cc2)cc1
units_label: µM
observed_result: 100
--
compound: Oc1ccccc1-c1ccc(Cl)cc1
units_label: µM
observed_result: 6.56
--
compound: O=S(=O)(O)Oc1cccc(-c2ccc(Cl)cc2)c1 [3'-PCB 3 sulfate]
units_label: µM
observed_result: 100
--
compound: Clc1ccc(Cl)c(-c2cc(Cl)ccc2Cl)c1
units_label: µM
observed_result: 34.4
--
compound: Clc1cccc(-c2cccc(Cl)c2)c1
units_label: µM
observed_result: 9.6
--
compound: Oc1cccc(-c2ccc(Cl)cc2)c1
units_label: µM
observed_result: 23
--
compound: COc1cc(Cl)c(-c2cc(Cl)ccc2Cl)cc1Cl
units_label: µM
observed_result: 5.58

---

Collected viability at 0.01 µM values appear next to each entry.
- Test system: HUVECs
- test_name: High-content imaging cytotoxicity in HUVECs, 24 h
- Format: cell-based, human
- particulars: Homo sapiens, HUVEC, 24 h, HUVECs, 24 hr, 0.01 µM; 0.00 µM = 100.00; read-out: huvec.cyto.24hr
Counter-ions that a name gives are not always drawn.
value_kind: viability at 0.01 µM

molecule: Clc1cccc(-c2cccc(Cl)c2)c1
observed_result: 91.9%

molecule: COc1ccc(-c2cccc(Cl)c2)cc1Cl
observed_result: 96.4%

molecule: O=C1C=CC(=O)C(c2ccc(Cl)cc2)=C1
observed_result: 89.2%

molecule: O=S(=O)(O)Oc1cc(Cl)ccc1-c1ccccc1 [2-yl PCB 3 sulfate]
observed_result: 95%

molecule: Oc1cc(Cl)cc(-c2cccc(Cl)c2)c1
observed_result: 94.6%

molecule: Clc1ccc(-c2ccccc2)cc1
observed_result: 83.5%

molecule: O=S(=O)(O)Oc1cccc(-c2ccc(Cl)cc2)c1 [3'-yl PCB 3 sulfate]
observed_result: 96%

molecule: O=S(=O)(O)Oc1cc(Cl)c(-c2cc(Cl)ccc2Cl)cc1Cl [4-yl PCB 52 sulfate]
observed_result: 99.3%

---

- Test system: HUVECs
- test_name: Tube formation (tubulogenesis) assay in HUVECs, 18 h
- Assay type: cell-based, human
- particulars: Homo sapiens, HUVEC, 18 h, HUVECs, top concentration 100.00 µM, read-out: huvec.tlps.18hr POD
- Experimental: Similar to the cultivation of iCell®-endothelial cells, HUVEC maintenance and experimentation are detailed elsewhere ([Iwata et al. 2017]). […] Tube formation assays were performed on Geltrex™ LDEV-free reduced growth factor basement membrane using both iCell®-endothelial cells and HUVECs in 384-well format exactly as detailed in Iwata et al. ([2017]). […] Images were analyzed with the angiogenesis module software within MetaXpress™ (Molecular Devices). […]
Structures can show the parent of a compound that is named as a salt.
Collected minimal effective concentration values appear next to each entry.
value_kind: minimal effective concentration (µM)

compound: Oc1cc(Cl)c(-c2cc(Cl)ccc2Cl)cc1Cl
value_kind: minimal effective concentration
units_label: µM
observed_result: 4.13
//
compound: Oc1ccc(-c2ccc(Cl)cc2)cc1
value_kind: minimal effective concentration
units_label: µM
observed_result: 0.51
//
compound: COc1ccc(-c2ccc(Cl)cc2)cc1
value_kind: minimal effective concentration
units_label: µM
observed_result: 49.5
//
compound: Clc1cccc(-c2cccc(Cl)c2)c1
value_kind: minimal effective concentration
units_label: µM
observed_result: 41.8
//
compound: O=S(=O)(O)Oc1cc(Cl)c(-c2cc(Cl)ccc2Cl)cc1Cl [4-yl PCB 52 sulfate]
value_kind: minimal effective concentration
units_label: µM
observed_result: 10.1

meta.source: paper PMC7377239
